Data credit: patent US8658661B2

System Under Test: recombinant human FLAP protein (Homo sapiens)
Construct: made in house; host or cells: Sf9 insect cells (100,000×g membrane pellet used)
Sequence (P20292 whole entry): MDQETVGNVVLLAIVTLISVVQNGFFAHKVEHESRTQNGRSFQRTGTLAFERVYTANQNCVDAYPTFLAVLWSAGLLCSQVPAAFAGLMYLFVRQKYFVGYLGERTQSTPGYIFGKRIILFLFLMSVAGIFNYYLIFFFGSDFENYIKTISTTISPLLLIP
Assay Remarks: FLAP binding assay (SPA, displacement of [125I]L-691,831)
Assay Setup: membranes of sf9 cells expressing recombinant human FLAP; [125I]L-691,831 probe; read-out: FLAP binding IC50

{"Compound": "C[C@@](c1ccc(-c2cnc(N)nc2)cc1)(c1noc(-c2cnn(C3COC3)c2)n1)C1CC1", "IC50, nM": 2.6}
{"Compound": "COCCn1cc(-c2nc([C@@](C)(c3ccc(-c4cnc(N)nc4)cc3)C(C)C)no2)cn1", "IC50, nM": 1.1}
{"Compound": "CNC(=O)Cn1cc(-c2nc(C(C)(C)c3ccc(-c4cnc(N)nc4)cc3)no2)cn1", "IC50, nM": 150}
{"Compound": "CC(c1ccc(-c2cnc(N)nc2)cc1)(c1noc(-c2cn[nH]c2)n1)C1CCC1 (stereo not shown)", "IC50, nM": 3.7}
{"Compound": "CC(C)[C@](C)(c1ccc(-c2cnc(N)nc2)cc1)c1noc(-c2cn[nH]c2)n1", "IC50, nM": 1.7}
{"Compound": "CC(c1ccc(-c2cnc(N)nc2)cc1)(c1noc(-c2cnn(C3COC3)c2)n1)C1CC1 (stereo not shown)", "IC50, nM": 2.5}
{"Compound": "CC(C)C(C)(c1ccc(-c2cnc(N)nc2)cc1)c1noc(C2CCCC(=O)N2C)n1 (stereo not shown)", "IC50, nM": 26}
{"Compound": "Cn1cc(-c2nc([C@@H](c3ccc(-c4cnc(N)nc4)cc3)C(C)(C)C)no2)cn1", "IC50, nM": 75}
{"Compound": "Cc1nc(N)nc(F)c1-c1ccc([C@](C)(c2noc(-c3cnn(CC(=O)N(C)C)c3)n2)C2CC2)cc1", "IC50, nM": 10}
{"Compound": "CN(C)C(=O)Cn1cc(-c2nc([C@@](C)(c3ccc(-c4cnc(N)c(F)c4)cc3)C3CC3)no2)cn1", "IC50, nM": 4.5}
{"Compound": "CC(C)C(C)(c1ccc(-c2cnc(N)nc2)cc1)c1noc(-c2c[nH]cn2)n1 (stereo not shown)", "IC50, nM": 4.6}
{"Compound": "CC(C)C(C)(c1ccc(-c2cnc(N)nc2)cc1)c1noc(N2CCC(C(C)(C)O)CC2)n1 (stereo not shown)", "IC50, nM": 7.5}
{"Compound": "Cc1ncc(-c2nc(C(C)(c3ccc(-c4cnc(N)nc4)cc3)C(C)C)no2)cn1 (stereo not shown)", "IC50, nM": 3.3}
{"Compound": "CC(C)C(C)(c1ccc(-c2cnc(N)nc2)cc1)c1noc(-c2ccc(C#N)nc2)n1 (stereo not shown)", "IC50, nM": 1.6}
{"Compound": "CNC(=O)Cn1cc(-c2nc([C@@](C)(c3ccc(-c4cnc(N)nc4)cc3)C3CC3)no2)cn1", "IC50, nM": 3.8}
{"Compound": "C[C@@](c1ccc(-c2ccc(N)nc2)cc1)(c1noc(-c2cnc(N3CCNCC3)cn2)n1)C1CC1", "IC50, nM": 4.4}
